Assignment: determine reported normalized growth for the given compounds.
Experiment: chemical genetic growth profiling, strain panel (AID 1159580);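 also: tested at 20 µM; growth read once vehicle control cultures reached saturation at 30 °C; 1 = growth at the plate median or of vehicle wells; lower values mean less growth of the strain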
Details: S. cerevisiae deletion strains, growth OD, locus YER155C, strain BEM2 (second series), active compounds read low
Out of some 5,500 compounds screened, about 2,000 (36%) were called active. Not shown: some 18% with an inconclusive outcome. This is one part of the list.
Numbers only.

Past entries and their recorded results:
# compound, numeric_readout
data = [
    ("CC1(C)C(O)CC(=O)C2(C)C1CC(O)C1(C)C2CCC2(C)C(c3ccoc3)OC(=O)C3OC321 (stereo unspecified)", 0.998),
    ("CC(=O)Oc1ccccc1C(=O)Oc1ccccc1C(=O)O", 1.02),
]

Value sought for every listed compound: normalized growth.
1. COC1CC(O[C@H]2CC[C@]3(C=O)C4CC[C@]5(C)C(C6=CC(=O)OC6)CC[C@]5(O)C4CC[C@]3(O)C2)OC(C)C1O (stereo partly specified)
2. CC[C@@]1(O)C(=O)OCc2c1cc1n(c2=O)Cc2cc3cc(O)ccc3nc2-1

# output
[1.01, 0.972]

Value sought for every listed compound: normalized growth.
1. Cc1c(OCC(F)(F)F)ccnc1CS(=O)c1nc2ccccc2[nH]1 (stereo unspecified)
2. COc1ccccc1N1CCN(CCCNc2cc(=O)n(C)c(=O)n2C)CC1

# output
1.01
1.02
